# Tested on: SN12C
# assay-protocol: NCI tumour cell line growth inhibition, 48 h
Activity calls are given as the source filed them. Rule as the data show it: active = GI50 up to about 1.1 µM and inactive = higher.
Recorded GI50 for the following molecules
observed-property: GI50

{"molecule": "CCCCNC(=O)c1cc2c(cc1Cl)Sc1nccn1S2(=O)=O", "target-entity": "SN12C", "observed-property": "GI50", "result": "> 100 µM (inactive)"}
{"molecule": "O=C(O)C1=C(C(=O)O)Oc2ccccc2O1", "target-entity": "SN12C", "observed-property": "GI50", "result": "> 100 µM (inactive)"}
{"molecule": "CC1(C)CCCC2(C)[C@@H]1CC[C@@]13CC(=O)[C@@](C)(CC[C@@H]21)C3 (stereo partly specified)", "target-entity": "SN12C", "observed-property": "GI50", "result": "93.5 µM (inactive)"}
{"molecule": "O=C1c2c[nH]nc2C(c2ccccc2)N1c1ccccc1 (stereo unspecified)", "target-entity": "SN12C", "observed-property": "GI50", "result": "> 10 µM (inactive)"}
{"molecule": "Cc1nc(C(N)=S)sc1C(=O)C/C(=N/N)C(=O)Nc1ccc(Cl)cc1", "target-entity": "SN12C", "observed-property": "GI50", "result": "> 100 µM (inactive)"}
{"molecule": "CC(NNC(=O)c1cc[n+]([BH2-]C#N)cc1)C(F)(F)F (stereo unspecified)", "target-entity": "SN12C", "observed-property": "GI50", "result": "> 100 µM (inactive)"}

###

# Tested on: KM12
# assay-protocol: NCI tumour cell line growth inhibition, 48 h
Activity calls are given as the source filed them. Rule as the data show it: active = GI50 up to about 1.1 µM and inactive = higher.
Labels: t for active, f for inactive

{"molecule": "O=c1ccn(C2OC(CO)C(O)C2[Se]c2ccccc2)c(=O)[nH]1 (centres undefined)", "category-label": "f"}
{"molecule": "CC(=O)O[C@H]1C[C@H]2C(=S)Nc3ccccc3C(=S)N2C1", "category-label": "f"}
{"molecule": "NN(CC(=O)O)CC(=O)O", "category-label": "f"}
{"molecule": "O=C1C=C(c2ccccc2)OC1C1Sc2ccccc2NC1=O (centres undefined)", "category-label": "f"}
{"molecule": "CCN(C(=O)N[C@@H](CC(C)C)C(=O)NCC(=O)OC)c1ccccc1", "category-label": "f"}
{"molecule": "C/C(=N\\NC(=S)N1CCCCCC1)c1cccc2cccnc12", "category-label": "f"}
{"molecule": "CC1(C)N=C(N)N=C(N)N1c1cccc(C(=O)Nc2ccc(S(=O)(=O)F)cc2)c1", "category-label": "f"}
{"molecule": "N=c1n(CC(=O)NC23CC4CC(CC(C4)C2)C3)c2ccccc2n1CC(=O)NC12CC3CC(CC(C3)C1)C2", "category-label": "f"}
{"molecule": "Nc1ccc(-c2nc3ccccc3s2)cc1I", "category-label": "f"}
{"molecule": "O=C1NC(=S)N/C1=C\\c1cc2c(=O)c3ccccc3sc2s1", "category-label": "f"}
{"molecule": "NC(=O)c1nnsc1NC=O", "category-label": "f"}
{"molecule": "Cc1cccc(O)c(=O)c1", "category-label": "f"}
{"molecule": "CC(=O)OC1(C)C(=O)OC1(C)C(C)=O (centres undefined)", "category-label": "f"}
{"molecule": "COc1ccccc1C(=O)c1ccc2ccccc2c1", "category-label": "f"}
{"molecule": "O=C1c2c[nH]nc2C(c2ccccc2)N1c1ccccc1 (centres undefined)", "category-label": "f"}
{"molecule": "COC(=O)CC(C#N)(OP1(=O)OC(c2ccccc2)C(C)N1C)c1ccccc1 (centres undefined)", "category-label": "f"}
{"molecule": "CCn1c(=O)nc2n(-c3ccc(SC)cc3)c3ccccc3nc-2c1=O", "category-label": "f"}
{"molecule": "O=P1(c2ccccc2)CCCCC1", "category-label": "f"}
{"molecule": "CCCCCCCCCCCc1nnc(N)o1", "category-label": "f"}
{"molecule": "CCc1c(CN)c(CC)c(CNC2=NCCN2)c(CC)c1CNC1=NCCN1", "category-label": "f"}
{"molecule": "COC(=O)c1ccc(Oc2nc3ccccc3nc2-c2cccs2)cc1", "category-label": "f"}
{"molecule": "NC(=S)N/N=C\\c1nccc2ccccc12", "category-label": "t"}
{"molecule": "CN(C(=O)c1cccs1)C(=S)N1CCN(c2ccccn2)CC1", "category-label": "f"}
{"molecule": "O=C(O)c1nnsc1COCc1ccccc1", "category-label": "f"}
{"molecule": "O=C1CSC(=S)N1", "category-label": "f"}
{"molecule": "O=c1c2c([N+](=O)[O-])cccc2nc2[nH]c3ccccc3n12", "category-label": "f"}
{"molecule": "CC(=O)OCC1OC(Sc2nc(-c3ccccc3)c(C#N)c(=O)n2C2OC(COC(C)=O)C(OC(C)=O)C(OC(C)=O)C2OC(C)=O)C(OC(C)=O)C(OC(C)=O)C1OC(C)=O (centres undefined)", "category-label": "f"}
{"molecule": "CC(=O)O[C@H]1CC[C@@]2(C)C(=CC[C@H]3[C@@H]4C/C(=C\\c5ccc(N(C)C)cc5)[C@H](OC(C)=O)[C@@]4(C)CC[C@@H]32)C1", "category-label": "f"}
{"molecule": "COC(=O)C(=O)C(C(=O)C(=O)Nc1ccc(Cl)cc1C)c1nc2ccc(C(=O)c3ccccc3)cc2nc1O (centres undefined)", "category-label": "f"}
{"molecule": "CCOC(=O)C(NC(=O)CC)(Nc1ccc(F)c(Cl)c1)C(F)(F)F (centres undefined)", "category-label": "f"}
{"molecule": "CCOC(=O)c1ccc(-n2c(SCC)nc3sc(C)c(C)c3c2=O)cc1", "category-label": "f"}
{"molecule": "COc1ccc2[nH]c3c([N+](=O)[O-])ccc(Cl)c3c(=O)c2c1", "category-label": "f"}
{"molecule": "CC1c2c(Cl)nc3ccccc3c2Oc2c1c(Cl)nc1ccccc21", "category-label": "f"}
{"molecule": "O=c1c2cc(Br)cc(Br)c2nc(CCCl)n1-c1ccc(O)c([N+](=O)[O-])c1", "category-label": "f"}

Each recorded value in this set is attributed to ChEMBL document CHEMBL1201862.
